- Experiment: Cmax in C57BL/6 mouse plasma at 3 mg/kg, iv administered as single dose
- Assay type: ADME, organism-based
- Parameters: dose 3 mg/kg, route intravenous
Measured Attribute: Cmax (ng/mL)

Chemical String	Measured Attribute	Unit	Value Reported
CC(C)(O)c1cccc(-c2ccc3nc(-c4ccc(Cl)cc4)cn3c2)c1	Cmax	ng/mL	4870

---

- Experiment: AUC in C57BL/6 mouse plasma at 3 mg/kg, iv administered as single dose
- Assay type: ADME, organism-based

Chemical String	AUC / ng·h/mL
CC(C)(O)c1cccc(-c2ccc3nc(-c4ccc(Cl)cc4)cn3c2)c1	20600

---

- System Name: Nuclear receptor subfamily 4 group A member 2 (Homo sapiens, UniProt P43354)
- Sequence (P43354 whole entry, the tested form may be a part): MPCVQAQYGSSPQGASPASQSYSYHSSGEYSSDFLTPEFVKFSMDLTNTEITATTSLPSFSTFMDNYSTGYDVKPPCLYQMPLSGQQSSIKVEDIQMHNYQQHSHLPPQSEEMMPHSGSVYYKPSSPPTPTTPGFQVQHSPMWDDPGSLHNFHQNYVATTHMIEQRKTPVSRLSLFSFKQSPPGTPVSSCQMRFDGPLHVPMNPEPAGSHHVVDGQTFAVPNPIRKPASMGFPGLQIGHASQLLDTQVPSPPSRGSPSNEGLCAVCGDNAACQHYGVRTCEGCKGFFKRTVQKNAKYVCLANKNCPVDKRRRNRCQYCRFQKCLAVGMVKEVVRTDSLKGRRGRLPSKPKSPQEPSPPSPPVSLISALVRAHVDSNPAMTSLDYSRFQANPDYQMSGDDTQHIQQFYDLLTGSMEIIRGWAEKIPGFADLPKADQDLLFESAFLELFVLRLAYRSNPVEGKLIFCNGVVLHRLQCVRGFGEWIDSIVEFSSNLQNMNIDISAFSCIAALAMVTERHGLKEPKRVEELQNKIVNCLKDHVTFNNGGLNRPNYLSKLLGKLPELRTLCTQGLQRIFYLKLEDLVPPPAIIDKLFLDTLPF
- Experiment: Agonist activity at full-length Gal4-fused NOT (unknown origin) expressed in CHO cells by luciferase reporter gene assay
- Type: cell-based
Measured Attribute: Emax (%)

Chemical String	Value Reported
CNC(=O)c1cccc(-c2ccc3nc(-c4ccc(Cl)cc4)cn3c2)c1	226
OCc1cccc(-c2ccc3nc(-c4ccc(Cl)cc4)cn3c2)c1	239
O=C(Nc1cccc(F)n1)c1cn2cc(-c3ccccn3)ccc2n1	138
NC(=O)c1cccc(-c2ccc3nc(-c4ccc(Cl)cc4)cn3c2)c1	210
O=C(Nc1ccccc1)c1cn2cc(-c3ccccn3)ccc2n1	203

---

- Experiment: AUC in C57BL/6 mouse brain at 10 mg/kg, po administered as single dose
- Format: ADME, organism-based

Chemical String	AUC [ng·h/mL]
CC(C)(O)c1cccc(-c2ccc3nc(-c4ccc(Cl)cc4)cn3c2)c1	55600

---

- Experiment: Cmax in C57BL/6 mouse brain at 10 mg/kg, po administered as single dose
- Assay type: ADME, organism-based
- Design: dose 10 mg/kg, route oral

Chemical String	Cmax [ng/mL]
CC(C)(O)c1cccc(-c2ccc3nc(-c4ccc(Cl)cc4)cn3c2)c1	3080

---

Here, each record is paired with measured EC50 data.
- System Name: Nuclear receptor subfamily 4 group A member 2 (Homo sapiens)
- Experiment: Agonist activity at full-length Gal4-fused NOT (unknown origin) expressed in CHO cells by luciferase reporter gene assay
- Format: cell-based
- Particulars: read-out: EC50

Molecule	EC50
CC(C)(O)c1c(F)ccc(-c2ccc3nc(-c4ccc(Cl)cc4)cn3c2)c1F	> 1000 nM
O=C(Nc1ccccc1Cl)c1cn2cc(-c3ccccn3)ccc2n1	> 1000 nM
CC(O)c1cccc(-c2ccc3nc(-c4ccc(Cl)cc4)cn3c2)c1 (racemic)	99 nM
CC(O)(CO)c1cccc(-c2ccc3nc(-c4ccc(Cl)cc4)cn3c2)c1 (stereo unspecified)	> 1000 nM
O=C(Nc1cc(F)ccc1F)c1cn2cc(-c3ccccn3)ccc2n1	> 1000 nM
OCc1c(F)ccc(-c2ccc3nc(-c4ccc(Cl)cc4)cn3c2)c1F	38 nM
N#Cc1ccccc1NC(=O)c1cn2cc(-c3ccccn3)ccc2n1	> 1000 nM
O=C(Nc1cc[nH]n1)c1cn2cc(-c3ccccn3)ccc2n1	> 1000 nM
CCCCCCC(O)c1cccc(-c2ccc3nc(-c4ccc(Cl)cc4)cn3c2)c1 (stereo unspecified)	> 3000 nM
OC1(c2cccc(-c3ccc4nc(-c5ccc(Cl)cc5)cn4c3)c2)COC1	323 nM
O=C(Nc1ccon1)c1cn2cc(-c3ccccn3)ccc2n1	> 1000 nM

---

- Experiment: Cmax in C57BL/6 mouse brain at 3 mg/kg, iv administered as single dose
- Type: ADME, organism-based
- Set-up: dose 3 mg/kg, route intravenous

Chemical String	Unit	Cmax
CC(C)(O)c1cccc(-c2ccc3nc(-c4ccc(Cl)cc4)cn3c2)c1	ng/mL	2630

---

- System Name: Nuclear receptor subfamily 4 group A member 2 (Mus musculus)
- Sequence (Q06219 whole entry): as the sequence (P43354 whole entry, the tested form may be a part) above, with T131S, G134S, E354D counted along it
- Experiment: Agonist activity at Nurr1 in mouse N2A cells harboring NBRE by luciferase reporter gene assay
pEC50: −log10 of the molar value.
Measured Attribute: pEC50

Chemical String	System Name	Measured Attribute	Value Reported
O=C(Nc1nncs1)c1cn2cc(-c3ccccn3)ccc2n1	Nuclear receptor subfamily 4 group A member 2 (Mus musculus)	pEC50	7.17
O=C(Nc1ccsc1)c1cn2cc(-c3ccccn3)ccc2n1	Nuclear receptor subfamily 4 group A member 2 (Mus musculus)	pEC50	9.00
O=C(Nc1ccccc1)c1cn2cc(-c3ccccn3)ccc2n1	Nuclear receptor subfamily 4 group A member 2 (Mus musculus)	pEC50	9.00
O=C(Nc1cccc(F)c1)c1cn2cc(-c3ccccn3)ccc2n1	Nuclear receptor subfamily 4 group A member 2 (Mus musculus)	pEC50	9.00
O=C(Nc1ccccn1)c1cn2cc(-c3ccccn3)ccc2n1	Nuclear receptor subfamily 4 group A member 2 (Mus musculus)	pEC50	8.70
O=C(Nc1cnoc1)c1cn2cc(-c3ccccn3)ccc2n1	Nuclear receptor subfamily 4 group A member 2 (Mus musculus)	pEC50	7.26
O=C(Nc1cc(F)cc(F)c1)c1cn2cc(-c3ccccn3)ccc2n1	Nuclear receptor subfamily 4 group A member 2 (Mus musculus)	pEC50	8.60
O=C(Nc1cc(F)ccc1F)c1cn2cc(-c3ccccn3)ccc2n1	Nuclear receptor subfamily 4 group A member 2 (Mus musculus)	pEC50	9.00
N#Cc1ccccc1NC(=O)c1cn2cc(-c3ccccn3)ccc2n1	Nuclear receptor subfamily 4 group A member 2 (Mus musculus)	pEC50	6.53
O=C(Nc1cccc(F)n1)c1cn2cc(-c3ccccn3)ccc2n1	Nuclear receptor subfamily 4 group A member 2 (Mus musculus)	pEC50	9.22
OCc1cccc(-c2ccc3nc(-c4ccc(Cl)cc4)cn3c2)c1	Nuclear receptor subfamily 4 group A member 2 (Mus musculus)	pEC50	9.00
O=C(Nc1ccccc1F)c1cn2cc(-c3ccccn3)ccc2n1	Nuclear receptor subfamily 4 group A member 2 (Mus musculus)	pEC50	9.00
O=C(Nc1ccon1)c1cn2cc(-c3ccccn3)ccc2n1	Nuclear receptor subfamily 4 group A member 2 (Mus musculus)	pEC50	7.70
O=C(Nc1ccccc1Cl)c1cn2cc(-c3ccccn3)ccc2n1	Nuclear receptor subfamily 4 group A member 2 (Mus musculus)	pEC50	7.58

---

- System Name: UniProt P43354
- Experiment: Agonist activity at full-length Gal4-fused NOT (unknown origin) expressed in CHO cells by luciferase reporter gene assay
- Type: cell-based
- Particulars: read-out: EC50
Here, each record is paired with measured EC50 data.

Compound	EC50
COCc1cccc(-c2ccc3nc(-c4ccc(Cl)cc4)cn3c2)c1	> 3000 nM
O=C(Nc1ccsc1)c1cn2cc(-c3ccccn3)ccc2n1	> 1000 nM
O=C(Nc1ccccc1F)c1cn2cc(-c3ccccn3)ccc2n1	> 1000 nM
OC(c1cccc(-c2ccc3nc(-c4ccc(Cl)cc4)cn3c2)c1)C1CCCC1 (stereo unspecified)	> 3000 nM
CCC(O)c1cccc(-c2ccc3nc(-c4ccc(Cl)cc4)cn3c2)c1 (stereo unspecified)	> 1000 nM
CCC(C)C(O)c1cccc(-c2ccc3nc(-c4ccc(Cl)cc4)cn3c2)c1 (stereo unspecified)	> 3000 nM
CCCCCC(O)c1cccc(-c2ccc3nc(-c4ccc(Cl)cc4)cn3c2)c1 (stereo unspecified)	> 3000 nM
OCc1cccc(-c2ccc3nc(-c4ccc(Cl)cc4)cn3c2)c1F	14 nM
O=C(Nc1cccc(F)n1)c1cn2cc(-c3ccccn3)ccc2n1	25 nM
OCc1cc(-c2ccc3nc(-c4ccc(Cl)cc4)cn3c2)ccc1F	> 1000 nM
N#Cc1cccc(-c2ccc3nc(-c4ccc(Cl)cc4)cn3c2)c1	> 3000 nM

---

Here, each record is paired with measured pEC50 data.
- System Name: Nuclear receptor subfamily 4 group A member 2 (Homo sapiens, UniProt P43354)
- Experiment: Agonist activity at full-length Gal4-fused NOT (unknown origin) expressed in CHO cells by luciferase reporter gene assay
- Type: cell-based
- Particulars: read-out: EC50
pEC50: −log10 of the molar value.

Molecule	pEC50
O=C(Nc1cnoc1)c1cn2cc(-c3ccccn3)ccc2n1	< 6.00
OC1(c2cccc(-c3ccc4nc(-c5ccc(Cl)cc5)cn4c3)c2)CCOCC1	< 6.00
O=C(Nc1cccc(F)c1F)c1cn2cc(-c3ccccn3)ccc2n1	< 6.00
OC(c1ccccc1)c1cccc(-c2ccc3nc(-c4ccc(Cl)cc4)cn3c2)c1 (stereo not given)	< 5.52
CCN(CC)C(=O)c1cccc(-c2ccc3nc(-c4ccc(Cl)cc4)cn3c2)c1	< 5.52
Clc1ccc(-c2cn3cc(-c4cccc(CN5CCOCC5)c4)ccc3n2)cc1	< 5.52
CN(C)Cc1cccc(-c2ccc3nc(-c4ccc(Cl)cc4)cn3c2)c1	< 5.52
CC(C)(O)c1cccc(-c2ccc3nc(-c4ccc(Cl)cc4)cn3c2)c1	6.66
CC(O)c1cccc(-c2ccc3nc(-c4ccc(Cl)cc4)cn3c2)c1 (single isomer, unassigned; (-))	6.66
O=C(Nc1cccc(F)c1)c1cn2cc(-c3ccccn3)ccc2n1	< 6.00

---

- System Name: CYP450 (Homo sapiens, UniProt P04798+P05177+P05181+P08684+P10632+P10635+P11509+P11712+P13584+P20813+P20815+P20853+P24462+P24903+P33260+P33261+P51589+P78329+P98187+Q02928+Q08477+Q16678+Q16696+Q5TCH4+Q6VVX0+Q7Z449+Q8TAV3+Q96SQ9+Q9HB55)
- Experiment: Induction of CYP450 (unknown origin)
- Format: ADME, protein assay
Here, each record is paired with measured Emax data.

Chemical String	Emax
O=C(Nc1ccccc1)c1cn2cc(-c3ccccn3)ccc2n1	< 20%
OCc1cccc(-c2ccc3nc(-c4ccc(Cl)cc4)cn3c2)c1	< 20%
